# tested target: human CB2 receptor (Homo sapiens, UniProt P34972)
# Sequence (P34972 whole entry): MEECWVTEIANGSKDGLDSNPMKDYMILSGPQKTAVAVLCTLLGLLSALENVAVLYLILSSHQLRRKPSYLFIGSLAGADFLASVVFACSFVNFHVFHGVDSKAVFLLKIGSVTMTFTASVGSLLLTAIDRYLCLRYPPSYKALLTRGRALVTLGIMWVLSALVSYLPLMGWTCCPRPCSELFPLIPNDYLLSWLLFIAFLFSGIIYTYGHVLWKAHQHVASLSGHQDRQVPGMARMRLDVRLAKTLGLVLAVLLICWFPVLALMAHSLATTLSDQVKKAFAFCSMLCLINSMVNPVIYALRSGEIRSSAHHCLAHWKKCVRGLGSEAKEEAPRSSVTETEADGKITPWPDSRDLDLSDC
# assay notes: Binding assay, cannabinoid CB2 receptor ([3H]-CP-55,940 displacement)
# applied conditions: Cannabinoid CB2 Receptor Binding IC50, human CB2 receptor, SK-N-MC cell membranes, radioligand CP-55,940 0.2 nM
# log10 IC50 values compiled below
Form field - Quantity: IC50; Unit: µM; Scale: log10

Exercise: For the record COC(=O)C(Cc1ccc(OCc2ccccc2)cc1)NC(=O)c1nn(C2CCCCC2)c2c1CCCC2 (centres unmarked) [compound 81] , what value of log10 IC50 is listed for human CB2 receptor (Homo sapiens, UniProt P34972)?
Solution: -1.70

Exercise: And then CC12CCC(C1)C(C)(C)C2NC(=O)c1nn(-c2ccc(Cl)cc2)c2c1CCCC2 (centres unmarked) [compound 12] , what is it?
Solution: -1.67

Exercise: And then CC12CCC(C1)C(C)(C)C2NC(=O)c1nn(C2CCCCC2)c2c1CC(O)CC2 (centres unmarked) [Cpd 93] , what is it?
Solution: -1.70

Exercise: And then CC1(C)[C@@H]2CC[C@@](C)(C2)[C@H]1NC(=O)c1nn(-c2ccc(Cl)cc2Cl)c2c1CCC/C2=C\c1ccc(Cl)cc1 [compound 292] , what is it?
Solution: -1.22

Exercise: And then CCOC(=O)C1CCc2c(c(C(=O)NC3C4CCC(C4)C3C(=O)OCC)nn2C2CCCCC2)C1 (centres unmarked) [compound 137] , what is it?
Solution: 0.19

***
Exercise: For the record O=C(Nc1nn(C2CCCCC2)c2c1CCCC2)NC12CC3CC(CC(C3)C1)C2 [Cpd 182] , what value of log10 IC50 is listed for human CB2 receptor (Homo sapiens, UniProt P34972)?
Solution: -1.55

Exercise: And then CCOC(=O)[C@H]1C2CCC(C2)[C@H]1NC(=O)c1nn(C2CCCCC2)c2c1CCCC2OC (some centres unmarked) [compound 282] , what is it?
Solution: 0.58

Exercise: And then CC(NC(=O)c1nn(C2CCCCC2)c2c1CC(C(N)=O)CC2)C12CC3CC(CC(C3)C1)C2 (centres unmarked) [compound 224] , what is it?
Solution: 0.08

====

# tested target: UniProt P34972
# assay notes: Binding assay, cannabinoid CB2 receptor ([3H]-CP-55,940 displacement)
# applied conditions: Cannabinoid CB2 Receptor Binding IC50, human CB2 receptor, SK-N-MC cell membranes, radioligand CP-55,940 0.2 nM
# log10(IC50) values compiled below
Form field - Quantity: IC50; Unit: nM; Scale: log10

Exercise: Query: log10(IC50); subject: CCOC(=O)[C@@H]1CCc2c(c(C(=O)NC3C4(C)CCC(C4)C3(C)C)nn2-c2ccccc2)C1 (some centres unmarked)
Solution: 2.36

Exercise: And then CCOC(=O)C1CCc2c(c(C(=O)NC(C)C34CC5CC(CC(C5)C3)C4)nn2Cc2ccccc2)C1 (centres unmarked) , what is it?
Solution: 1.48

Okay, next one:
Exercise: Query: log10(IC50); subject: CCOC(=O)[C@@H]1CCCC[C@H]1NC(=O)c1nn(C2CCCCC2)c2c1CCCC2
Solution: 1.59

====

# pIC50 values compiled below
# tested target: UniProt:P34972
# assay notes: Binding assay, cannabinoid CB2 receptor ([3H]-CP-55,940 displacement)
# applied conditions: Cannabinoid CB2 Receptor Binding IC50, human CB2 receptor, SK-N-MC cell membranes, radioligand CP-55,940 0.2 nM
# log scale: pIC50 equals minus log10 of the concentration in mol/L

Exercise: Query: pIC50; subject: CCOC(=O)[C@@H]1CCCC[C@H]1NC(=O)c1nn(-c2ccc(F)cc2)c2c1CCCC2
Solution: 7.39

Exercise: And then O=C(N[C@@H]1CCCC[C@@H]1CO)c1nn(C2CCCCC2)c2c1CCCC2 , what is it?
Solution: 7.26

***
Exercise: Query: pIC50; subject: CCOC(=O)[C@@H]1CCc2c(c(C(=O)NC(C)C34CC5CC(CC(C5)C3)C4)nn2C2CCCCC2)C1 (some centres unmarked)
Solution: 7.82

Exercise: And then O=C(Nc1nn(C2CCCCC2)c2c1CCCC2)C12CC3CC(CC(C3)C1)C2 , what is it?
Solution: 6.15

Exercise: And then O=C(NC12CC3CC(CC(C3)C1)C2)c1nn(-c2ccc(Cl)cc2Cl)c2c1CCCC2 , what is it?
Solution: 6.52

Exercise: And then CC1(C)C2CCC1(C)C(NC(=O)c1nn(-c3ccc(F)cc3)c3c1CCCC3)C2 (centres unmarked) , what is it?
Solution: 7.96

Exercise: And then CC(NC(=O)c1nn(C2CCCCC2)c2c1CCCC2O)C12CC3CC(CC(C3)C1)C2 (centres unmarked) , what is it?
Solution: 6.68

Exercise: And then CCOC(=O)[C@H]1C2CCC(C2)[C@H]1NC(=O)CCc1nn(C2CCCCC2)c2c1CCCC2 (some centres unmarked) , what is it?
Solution: 5.22

====

# IC50 values compiled below
# tested target: human CB1 receptor (Homo sapiens, UniProt P21554)
# Construct: expressed in transfected cells; host or cells: SK-N-MC cells, stably transfected with pcDNA3 CB-1 (human); semi-purified membrane pellet
# Sequence (P21554 whole entry): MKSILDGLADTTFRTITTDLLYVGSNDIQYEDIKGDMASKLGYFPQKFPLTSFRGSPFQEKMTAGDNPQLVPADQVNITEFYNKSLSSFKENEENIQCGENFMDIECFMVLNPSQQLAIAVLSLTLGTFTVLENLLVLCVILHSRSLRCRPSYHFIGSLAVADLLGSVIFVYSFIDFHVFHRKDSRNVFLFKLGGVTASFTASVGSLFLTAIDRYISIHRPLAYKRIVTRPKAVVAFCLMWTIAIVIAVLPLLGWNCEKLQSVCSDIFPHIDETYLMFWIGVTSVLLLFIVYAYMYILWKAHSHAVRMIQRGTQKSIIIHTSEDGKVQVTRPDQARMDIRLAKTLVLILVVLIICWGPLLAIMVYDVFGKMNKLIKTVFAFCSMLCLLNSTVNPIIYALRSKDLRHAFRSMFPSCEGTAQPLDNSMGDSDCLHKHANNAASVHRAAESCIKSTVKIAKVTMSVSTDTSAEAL
# assay notes: biochemical
# Assay type: binding
# Method: Binding Assay for CB1 or CB2 Agonists or Inverse Agonists The human CB1 and CB2 receptors were stably expressed in SK-N-MC cells transfected with pcDNA3 CB-1 (human) or pcDNA3 CB-2 (human). The cells were grown in T-180 cell culture flasks under standard cell culture conditions at 37° C. in a 5% CO2 atmosphere. […] The IC50 binding values for compounds tested were calculated by linear regression and were obtained from studies in which varying compound concentrations were used.
Please respond with the number in nM and leave the unit unwritten.

Exercise: Query: IC50; subject: CCOC(=O)C1CCc2c(c(C(=O)NC3C4(C)CCC(C4)C3(C)C)nn2C2CCCCC2)C1 (centres unmarked)
Solution: 300

Exercise: And then COc1ccccc1CCNC(=O)c1nn(Cc2ccccc2)c2c1CCCC2 , what is it?
Solution: 890

Exercise: And then CCOC(=O)C1C2CCC(C2)C1NC(=O)c1c2c(nn1Cc1ccccc1)CCCC2 (centres unmarked) , what is it?
Solution: 10700

***
Exercise: Query: IC50; subject: O=C(NN1CCCCCC1)c1nn(Cc2ccccc2)c2c1CCCC2
Solution: 49

Exercise: And then CN(C)C(=O)C1CCc2c(c(C(=O)NC3C4(C)CCC(C4)C3(C)C)nn2C2CCCCC2)C1 (centres unmarked) , what is it?
Solution: 3600

Exercise: And then CC(NC(=O)Nc1nn(C2CCCCC2)c2c1CCCC2)C1CCCCC1 (centres unmarked) , what is it?
Solution: 12500

Exercise: And then CC12CCC(C1)C(C)(C)[C@@H]2NC(=O)c1nn(Cc2ccccc2)c2c1CCCC2 (some centres unmarked) , what is it?
Solution: 2.6

Exercise: And then C[C@@H](NC(=O)c1nn(C2CCCCC2)c2c1CCCC2)C12CC3CC(CC(C3)C1)C2 , what is it?
Solution: 260

====

# pIC50 values compiled below
# tested target: human CB2 receptor (Homo sapiens, UniProt P34972)
# assay notes: Binding assay, cannabinoid CB2 receptor ([3H]-CP-55,940 displacement)
# applied conditions: Cannabinoid CB2 Receptor Binding IC50, human CB2 receptor, SK-N-MC cell membranes, radioligand CP-55,940 0.2 nM
# log scale: pIC50 equals minus log10 of the concentration in mol/L

Known pIC50 results, listed for orientation:
Exercise: Query: pIC50; subject: CCOC(=O)C1CCc2c(C(=O)NC34CC5CC(CC3C5)C4)nn(Cc3ccccc3)c2C1 (centres unmarked) [compound 157]
Solution: 8.70

Exercise: And then CC12CCC(C1)C(C)(C)C2NC(=O)c1nn(Cc2ccccc2)c2c1CCCC2 (centres unmarked) [Cpd 194] , what is it?
Solution: 9.70

***
Exercise: Query: pIC50; subject: C[C@H](NC(=O)c1nn(Cc2ccccc2)c2c1CCCC2)c1ccccc1 [compound 200]
Solution: 9.00

Exercise: And then CC(c1ccccc1)n1nc(C(=O)NCC2CCCCC2)c2c1CCCC2 (centres unmarked) [compound 242] , what is it?
Solution: 5.80

Exercise: And then CC(NC(=O)c1nn(C2CCCCC2)c2c1CCCC2)[C@H]1CC[C@H](C)CC1 (some centres unmarked) [compound 248] , what is it?
Solution: 7.70

====

# tested target: human CB2 receptor (Homo sapiens, UniProt P34972)
# assay notes: Functional cell-based assay, CB2 receptor mediated change in CRE β-gal expression (agonist / inverse agonist)
# applied conditions: SK-N-MC cells, forskolin, inverse agonist, read-out: CB2 Receptor Functional Inverse Agonist EC50
# EC50 values compiled below
Please respond with the number in nM and leave the unit unwritten.

Known EC50 results, listed for orientation:
Exercise: Query: EC50; subject: CC(C)OC(=O)C1CCc2c(c(C(=O)NC3C4CC5CC(C4)CC3C5)nn2C2CCCCC2)C1 (stereo not shown)
Solution: 360

Exercise: And then CCOC(=O)C1CCc2c(C(=O)NC34CC5CC(CC3C5)C4)nn(Cc3ccccc3)c2C1 (stereo not shown) , what is it?
Solution: 1.5

Exercise: And then CCOC(=O)[C@@H]1CCc2c(c(C(=O)NC3C4(C)CCC(C4)C3(C)C)nn2-c2ccccc2)C1 (stereo partly shown) , what is it?
Solution: 220

***
Exercise: Query: EC50; subject: CCOC(=O)C1CCc2c(c(C(=O)NC3C4CC5CC(C4)CC3C5)nn2Cc2ccccc2)C1 (stereo not shown)
Solution: 65
